Test system: SK-MEL-28 melanoma
test.description: NCI-60 one-dose screen, 48 h
stated.conditions: 10 µM unless noted
The panel holds about 83,000 compounds, 20% with a hit somewhere; the sample as a whole holds those more often. Activity calls are given as the source filed them. Rule for the calls: active = growth percent below 10; inactive = the rest.
Use one of these outcomes when replying: active, inactive

COC(=O)/C(CCC=C(C)C)=C1\[C@@H](OC(C)=O)C[C@@]2(C)[C@H]1C[C@@H](O)[C@H]1[C@@]3(C)CC[C@H](NCCN)[C@@H](C)[C@@H]3CC[C@@]12C | inactive
CN(C)CC(=O)Nc1ccc2ncnc(Nc3ccc(Oc4cccc(C(F)(F)F)c4)c(Cl)c3)c2c1 | inactive
CN1CCN(Cc2ccc3c(NNC(=O)c4ccccc4)nc4cc(F)ccc4n23)CC1 | inactive
CCc1ccc(C(=O)/C=C/C23c4ccccc4C(c4ccccc42)C2C(=O)NC(=O)C23)cc1 (stereo not given) | active

Req: Just curious, what result did COc1ccc(C2=Nc3c/c(=C\c4c(O)[nH]c5ccc(Cl)cc45)ccc3=N2)cc1 get here?
Resp: inactive

----------
Tested on: U251 CNS
test.description: NCI-60 one-dose screen, 48 h
stated.conditions: 10 µM unless noted
The panel holds about 83,000 compounds, 20% with a hit somewhere; the sample as a whole holds those more often. Active and inactive are the calls of the source. The calls were made as follows: active = growth percent below 10; inactive = the rest.
The reply should be one of these categories: 1 (active), 0 (inactive)

Cc1ccc(-n2c(=S)[nH]c3sc4c(c3c2=O)CCC(=O)C4)cc1 | 0
O=C(c1cc2ccccc2o1)c1nn(-c2ccccc2)/c(=N/N=Cc2cn(-c3ccccc3)nc2-c2cc3ccccc3oc2=O)s1 | 0
CC1=Nc2cnc(Nc3ccc(OCCN4CCCC4)cc3)nc2Nc2ccccc21 | 0
COc1ccc2nc3ccc(OC)cc3c(SCCCN)c2c1 | 0
COc1cc(OC)c2sc(-c3ccc(-n4cncc4-c4ccc(OC)c(OC)c4)cc3)nc2c1 | 0

Req: // param item: O=C1/C(=C/c2ccccc2Br)COc2ccc(O)c(O)c21 ; yields the recorded call
Resp: 1

Req: Any idea what this test logged for C=CC(=O)NCc1ccc(Nc2nccc(-c3ccc(N4CCCC4)c(C#N)c3)n2)cc1 ?
Resp: 0

Req: Per the assay record, what outcome was assigned to COc1ccccc1NC(=O)Cn1cc(CN2CCN(c3ccnc4cc(Cl)ccc34)CC2)nn1 ?
Resp: 0

Req: Hi team, can someone confirm the assay call for OB(O)c1cccc(-c2nc3ccc4[nH]ncc4c3c3c2CCCC3)c1 ?
Resp: 0

Req: Tell me the assay call for CN([O-])c1nc(N(C)[O-])nc(N2CCOCC2)n1.CN([O-])c1nc(N(C)[OH2+])nc(N2CCOCC2)n1.[Fe+3] please.
Resp: 0

----------
System: UO-31 renal
test.description: NCI-60 one-dose screen, 48 h (100 = growth as untreated, 0 = no growth, -100 = all killed)
stated.conditions: 10 µM unless noted
About 83,000 compounds went through this panel and 20% of them were active in at least one assay; those are over-represented in the sample as a whole.
Would you mind sorting the entries by growth according to these classes? class 1 (below 30%), class 2 (30% to below 60%), class 3 (60% or more)

COc1cc2c(c(OC)c1OC)C(=O)CC(c1cccc(NC(=O)c3ccc(Br)cc3)c1)O2 (centres undefined) | class 2
CN1CCN(Cc2ccc(NC(=O)c3cncc(C#Cc4cnc(N)c5ccccc45)c3)cc2C(F)(F)F)CC1 | class 1
O=S(=O)(NCCNc1cc(-c2c(-c3cccc(O)c3)nc3sccn23)ccn1)c1ccc(C(F)(F)F)cc1 | class 1
O=[N+]([O-])c1ccc(S(=O)(=O)N2CCN(C3=NS(=O)(=O)c4ccccc4N3c3ccccc3)CC2)cc1 | class 3
CC1(C)CC2=C3C=C[C@@H]4[C@@]5(C)CCC(=O)C(C)(C)[C@@H]5CC[C@@]4(C)[C@]3(C)CC[C@@]2(C(=O)O)CC1=O | class 2
CC12CCC3c4ccccc4CCC3(CO1)C2 (centres undefined) | class 3
O=C1Nc2ccccc2/C1=C\c1nc(-c2ccccc2)n2ccccc12 | class 3
CN(C)CCNc1nc2c3cc(Cl)ccc3nn2c2ccccc12 | class 1
COc1ccc2[nH]cc(-c3nc(-c4c[nH]c5ccncc45)cs3)c2c1 | class 2
O=C1Nc2ccc(Br)cc2/C1=N/c1n[nH]c(=S)s1 | class 3

Req: Which bin should I file COC(=O)c1c2c(c[n+]([O-])c1C)C(=O)C(NCc1ccccc1)=CC2=O under?
Resp: class 1

Req: Bin this entry: C=C1C(=O)O[C@H]2[C@H]1CC/C(COC(=O)CCSCCC(=O)OC/C1=C/CC[C@@]3(C)O[C@H]3[C@H]3OC(=O)C(=C)[C@@H]3CC1)=C\CC[C@@]1(C)O[C@@H]21
Resp: class 1

Req: Class (by measured growth) for Cc1ccc(-c2nc3nc(-c4ccc(F)cc4)nc(N4CCNCC4)c3o2)cc1
Resp: class 3

----------
Tested on: LOX IMVI melanoma
test.description: NCI-60 one-dose screen, 48 h (100 = growth as untreated, 0 = no growth, -100 = all killed)
stated.conditions: 10 µM unless noted
The panel holds about 83,000 compounds, 20% with a hit somewhere; the sample as a whole holds those more often.
quantity.measured: growth (%)
Express your answer in %, writing the number without its unit.

O=C(NCCCCNC(=O)OCc1ccc2c(Cl)cc(Cl)c(O)c2n1)OCc1ccc2c(Cl)cc(Cl)c(O)c2n1 | 14.4
CN(CCn1sc(=O)n(Cc2ccccc2)c1=O)Cc1ccc2c(Cl)cc(Cl)c(O)c2n1 | 30.7
COc1ccc2c(c1)c(-c1noc(C(=O)c3cn(C)c4ccc(Br)cc34)n1)cn2C | 96.8
COc1ccc(-c2cn(-c3cc(OC)c(OC)c(OC)c3)c(=O)n2C(C)=O)cc1 | 95.5
O=C1/C(=C/c2ccc(Cl)cc2)COc2ccc(O)c(O)c21 | -84.8

Req: Could you please provide reported growth for C=C(C)[C@@H]1CC[C@]2(C(=O)NCC#CCN3CCN(C)CC3)CC[C@]3(C)[C@H](CC[C@@H]4[C@@](C)(CCC#N)[C@H](C(=C)C)CC[C@]43C)[C@@H]12 ? Thanks!
Resp: 10.4

Req: Output growth of COc1cccc([C@H]2c3[nH]c4ccccc4c3C[C@H]3C(=O)N(CCCCCCC(=O)NO)CC(=O)N23)c1
Resp: 49.4

Req: Return growth (reported value) for this compound: O=C1c2cc(Cl)ccc2S(=O)(=O)c2c(NCCCNCCO)nc3ccccc3c21
Resp: -76.8

----------
Tested on: ACHN renal
test.description: NCI-60 one-dose screen, 48 h
stated.conditions: 10 µM unless noted
This is part of a sample that, as a whole, favours compounds with a hit. Of some 83,000 tested, about 20% had one in any assay. Activity calls are given as the source filed them. Rule for the calls: active = growth percent below 10; inactive = the rest.
Answer with one of the outcomes active, inactive

Worked examples follow.
O=C(Cc1ccccc1)Nc1nc(O)c(/C=C2\C(=O)C=Cc3ccccc32)s1 | inactive
N=C(N)c1ccc(-c2ccc(-c3ccc(F)cc3)o2)o1 | inactive

Could you now consider this next molecule?
Req: Per the records of this test, what outcome belongs to CN(C)CCNc1nc2c3cc(Cl)ccc3nn2c2ccccc12 ?
Resp: inactive

----------
Test system: OVCAR-8 ovarian
test.description: NCI-60 one-dose screen, 48 h
stated.conditions: 10 µM unless noted
This is part of a sample that, as a whole, favours compounds with a hit. Of some 83,000 tested, about 20% had one in any assay. Calls of active or inactive are those of the source. Rule for the calls: active = growth percent below 10; inactive = the rest.
Pick from 1 (active), 0 (inactive) when you respond.

O=C(/C=C/c1ccc(Cl)cc1)c1cccc(Nc2nc(Nc3ccccc3)nc(Nc3ccccc3)n2)c1 | 0
O=C(/C=C(/C=C/c1cccc2[nH]ccc12)OB(F)F)/C=C/c1cccc2[nH]ccc12 | 1
COc1ccc(/C=C2\COc3ccc(O)c(O)c3C2=O)cc1 | 1
CC(=O)n1nc(C(=O)OC(C)C)c2cc(C)c(C)cc21 | 0

Req: Assay result, entry COP(=O)(OC)C(C)(C)CC(=O)CC(C#N)(C#N)C(C#N)C#N — outcome?
Resp: 0

Req: Name the outcome recorded for O=C1C(Cl)=C(Nc2ccc(O)cc2)C(=O)N1Cc1ccc(Cl)cc1 in the assay.
Resp: 0

Req: I would be grateful if you could indicate the recorded call for COc1cc(-c2cc(-c3cccs3)c(C#N)c(N3CCOCC3)n2)cc(OC)c1OC .
Resp: 0

Req: Could you please tell me the result logged for O=C1COCCN1c1ccc(Nc2nc(Cl)nc(OCc3cn(Cc4ccccc4)nn3)n2)cc1 in this assay?
Resp: 0

Req: State the result this test recorded for CCOC(=O)c1cc2c(=O)oc3ccccc3c2oc1=O .
Resp: 0

Req: Which outcome was entered for the compound COc1ccc(C(c2cc(OC)c(OC)c(OC)c2)N2CCN(c3ccccc3)CC2)cc1 (stereo unspecified) in this test?
Resp: 0

Req: Returns: the outcome recorded for O=C(Cn1c(-c2ccc([N+](=O)[O-])cc2)nc2ccccc21)NNC(=O)c1cccnc1 in this assay.
Resp: 0

Req: Fill in: this test's call for COc1ccc2[nH]cc(C(c3cc(F)cc(F)c3)c3c[nH]c4ccc(OC)cc34)c2c1 is ___
Resp: 0

Req: I'd appreciate the recorded outcome for COc1cc(OC)cc(C2=C3CC[C@@H]4[C@H](CC[C@]5(C)C(=O)CC[C@@H]45)C3=CC3C(O)c4cccnc4N4C(=O)COC234)c1 (stereo partly specified) from this test.
Resp: 0

Req: Query: recorded result category for Fc1cccc(CNc2c3ccccc3nc3ccccc23)c1F in this test
Resp: 0

Req: Lab log entry: Cc1nn(-c2ccccc2)c(Oc2ccccn2)c1-c1nc2ccccc2s1 — outcome as called in the assay?
Resp: 0

Req: Answer briefly: the call reported for CCOC(=O)c1[nH]c(=O)c2c(C)nc(-c3ccccc3)cc2c1O in this assay.
Resp: 0

Req: Kindly provide the recorded test outcome for the following compound: Fc1cc2c(cc1Cl)N(c1ncnc3ccc(-c4cnc5[nH]ncc5c4)cc13)CC2
Resp: 0

Req: So what was the verdict on COc1ccc(Cc2cc(-c3ccccc3)nn(Cc3ccccc3)c2=O)cc1OC in this test?
Resp: 0

Req: Name the outcome recorded for O=C(Nn1c2c(sc1=Nc1ccccc1)C(=O)c1ccccc1C2=O)c1cc2ccc1CCc1ccc(cc1)CC2 in the assay.
Resp: 0

Req: For CC(=O)c1cc(O)c2ccccc2c1O , what call appears in the results of this test?
Resp: 0

Req: Test call, this compound: COc1ccccc1NC(=O)Cn1cc(CN2CCN(c3ccnc4cc(Cl)ccc34)CC2)nn1
Resp: 0

Req: What was the test verdict on CC(C)c1ccc(COCc2cc(CN3CCCC3)c(O)c3ncccc23)cc1 ?
Resp: 1

Req: Call for entry COc1ccc(/C=C2\COc3ccc(O)cc3C2=O)c(OC)c1OC :
Resp: 0
